# ΔTm listing for each entry below
Tested on: Calf thymus DNA
assay-details: Binding affinity to calf thymus DNA by spectral analysis
Type: nucleic-acid assay
test-context: Bos taurus
recorded-metric: ΔTm (°C)

INSERT INTO results (molecule, system_name, number) VALUES
  ('CC[C@@]1(O)C[C@H](O[C@H]2C[C@H](N)[C@H](O)[C@H](C)O2)c2c(O)c3c(c(O)c2[C@H]1C(=O)OC)C(=O)c1cccc(O)c1C3=O.Cl', 'Calf thymus DNA', 7.6),
  ('CC[C@]1(O)Cc2c(O)c3c(c(O)c2[C@@H](O[C@H]2C[C@H](N)[C@H](O)[C@H](C)O2)C1)C(=O)c1c(OC)cccc1C3=O', 'Calf thymus DNA', 50),
  ('COc1cccc2c1C(=O)c1c(O)c3c(c(O)c1C2=O)C[C@@](O)(C(=O)CO)C[C@@H]3O[C@H]1C[C@H](N)[C@H](O)[C@H](C)O1 [DOXORUBICIN]', 'Calf thymus DNA', 13.4),
  ('COc1cccc2c1C(=O)c1c(O)c3c(c(O)c1C2=O)C[C@@](O)(CCO)C[C@@H]3O[C@H]1C[C@H](N)[C@H](O)[C@H](C)O1 [13-DEOXYDOXORUBICIN]', 'Calf thymus DNA', 6.15);

meta.source: ChEMBL document CHEMBL3243937
